Each entry below lists one item and its recorded OD450 value.
Molecular target: T1, recombinant human CD40-Fc (human, UniProt P25942 21-193)
T1 construct: also called rh-CD40-Fc; CD40-hFc
T1 sequence (P25942 21-193): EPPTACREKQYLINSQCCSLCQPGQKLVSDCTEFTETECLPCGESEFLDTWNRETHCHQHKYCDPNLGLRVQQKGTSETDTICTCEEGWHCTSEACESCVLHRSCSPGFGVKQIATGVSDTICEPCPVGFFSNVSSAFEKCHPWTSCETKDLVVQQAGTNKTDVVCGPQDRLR
Test: ELISA, CD40-Fc coated, VHH at 0.013 nM
Number only, no unit.

For pgDD40-HZ-15 (VHH, not shown: small tags and cut ends) VHH: EVQLVESGGGLVQAGGSLRLSCAASGFTFDDYAIGWFRQAPGKEREGVSCLSKNVGNTYYADSVKGRFTISSDNAKNTVYLQMNSLKPEDTAVYYCAKGSGYGCYDFPRYAVWGQGTQVTVSS the binder record lists OD450 as 0.063

Reported OD450 of pgDD40-HZ-24 (VHH, not shown: small tags and cut ends, also called pgDD40-HG-24) VHH: EVQLVESGGGSVQAGGSLRLSCAASLSTFSNYRMGWFRRAPGKERELVARIEPHGVVDYGDSVKGRFTISRDNAKNTVTVYLHMNSLKPEDTAVYYCNALRLISGRYDPLFSSWGQGTQVTVSS : 0.055

Form field OD450, entry pgDD40-SZ-2 (VHH, not shown: small tags and cut ends) VHH: EVQLVESGGALAQPGGSLRLSCEASATIRSVNAMAWYRQGPGKPREMVANITSGDTTYYADSVKGRFTLSREGARNTVYLQMNSLKPEDTAVYQCNIHYTSTGGIRRDYWGRGTQVTVSS : 0.062

Record pgDD40-SZ-3 (VHH, not shown: small tags and cut ends) VHH: QVQLVESGGGLVQAGDSLRLSCTASGRAFNTYTMAWFRQAPGKERDFVAAISRDGTITHYADSVKGRFTTTRDNAKNTMYLQMSSLKYDDTAVYYCAARRVGAVPERESAYEHWGQGTQVTVSS . Reported OD450: 0.055

# binder pgDD40-HZ-47 (VHH, not shown: small tags and cut ends) VHH: QVQLVESGGGLVQPGGSMRLSCSASGFSISVYWMSWVRRAPGKGLEWVSNLGADGVTAQYSDSVKGRFTIARDTAKNTLYLQMNSLKPEDTAVYYCNAMTGMNPAEEEAYWGQGTQVTVSS ; its OD450 = 0.055

Consider the record given below.
Recorded OD450 (binder pgDD40-SZ-5 (VHH, not shown: small tags and cut ends) VHH: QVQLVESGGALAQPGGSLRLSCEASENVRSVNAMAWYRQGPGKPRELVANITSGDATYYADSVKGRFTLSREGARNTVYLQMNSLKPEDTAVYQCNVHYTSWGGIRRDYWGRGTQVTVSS ): 0.061
